Test system: DENV-2 viral replicon
Procedure Details: microbe, parasite or virus in culture
Experimental Context: Dengue virus, DENV2, BHK, 72 h
The molecules listed here are annotated with their pEC50.
The scale used: pEC50 is minus the common logarithm of the concentration in molar units.

Below, 3 molecules whose answers are already recorded.
• NC(=O)c1nccnc1O [Compound 3a, 3-hydroxypyrazine-2-carboxamide] = 4.68
• COc1c(C)c2c(c(O)c1C/C=C(C)/C=C(\C)C(=O)O)C(=O)OC2 [Compound 6, reference compound] = 6.52
• NC(=O)c1nccn([C@@H]2O[C@H](CO)[C@@H](O)[C@H]2O)c1=O = 3.95

Exercise: Name the reported pEC50 value associated with the molecule NC(=O)c1ncn([C@@H]2O[C@H](CO)[C@@H](O)[C@H]2O)c1O [Compound 2b, reference compound]
Solution: 4.82

---

Parameter: CC50 at 72 h. Scope: all listed entries.
Procedure Details: Cell viability assay (MTS) in DENV replicon cells
Experimental Context: hamster

Solved cases (2 shown):
* NC(=O)c1nc[nH]n1 [Compound 1a, 1H-1,2,4-triazole-3-carboxamide] | > 665 µM
* NC(=O)c1nccnc1O [Compound 3a, 3-hydroxypyrazine-2-carboxamide] | > 665 µM

Now look at this entry.
Exercise: Fill in the blank: the reported CC50 at 72 h of NC(=O)c1nc(F)cnc1O [Compound 5a, 6-fluoro-3-hydroxypyrazine-2-carboxamide, reference compound] is ____.
Solution: > 665 µM

---

Quick list: CC50 per entry.
System: DENV replicon cells (BHK)
Procedure Details: Cell viability assay (MTS) in DENV replicon cells
Experimental Context: DENV replicon BHK cells, MTS, 72 h
Quick reminder: number only, in µM, skip the unit.

• NC(=O)c1ncn([C@@H]2O[C@H](CO)[C@@H](O)[C@H]2O)c1O [Compound 2b, reference compound] = 33
• NC(=O)c1nc[nH]c1O [Compound 2a, 5-hydroxy-1H-imidazole-4-carboxamide] = 23
• Nc1nc(N)c2[nH]cnc2n1 = 13

Turning now to a further molecule:
Exercise: What value of CC50 has been reported for the following molecule? COc1c(C)c2c(c(O)c1C/C=C(C)/C=C(\C)C(=O)O)C(=O)OC2 [Compound 6, reference compound]
Solution: 1.4

---

Tested on: DENV-2 viral replicon
Experimental Context: DENV replicon BHK cells
Form field: TTI, tissue culture therapeutic index (CC50/EC50) (one value per entry).
I only need the number, thanks.

Exercise: Quick one: TTI, tissue culture therapeutic index (CC50/EC50) for `NC(=O)c1nccn([C@@H]2O[C@H](CO)[C@@H](O)[C@H]2O)c1=O` ?
Solution: 8.8

---

System: DENV-2 viral replicon
Procedure Details: microbe, parasite or virus in culture
Experimental Context: Dengue virus, DENV2, BHK, 72 h
Observation Type: EC50

* NC(=O)c1ncn([C@@H]2O[C@H](CO)[C@@H](O)[C@H]2O)n1 [Compound 1b, reference compound] | 1.3 µM

Exercise: Consider the compound shown here: NC(=O)c1nc[nH]n1 [Compound 1a, 1H-1,2,4-triazole-3-carboxamide] What is its recorded EC50?
Solution: 4.9 µM

Exercise: I am curious: what EC50 value has been reported for NC(=O)c1nc[nH]c1O [Compound 2a, 5-hydroxy-1H-imidazole-4-carboxamide] ?
Solution: 2.4 µM

Exercise: Returns the measured EC50 for the input compound. Input: NC(=O)c1nc(F)cnc1O [Compound 5a, 6-fluoro-3-hydroxypyrazine-2-carboxamide, reference compound]
Solution: 110 µM

---

Test system: DENV replicon cells (BHK)
Procedure Details: Cell viability assay (MTS) in DENV replicon cells
Experimental Context: DENV replicon BHK cells, MTS, 72 h
Observation Type: CC50

Worked cases, CC50 given:
• NC(=O)c1nc(F)cnc1O [Compound 5a, 6-fluoro-3-hydroxypyrazine-2-carboxamide, reference compound] = > 1 mM
• NC(=O)c1nc[nH]n1 [Compound 1a, 1H-1,2,4-triazole-3-carboxamide] = > 1 mM
• NC(=O)c1nccn([C@@H]2O[C@H](CO)[C@@H](O)[C@H]2O)c1=O = > 1 mM

Let us examine a further case.
Exercise: Look at this molecule and give its reported CC50. NC(=O)c1nccnc1O [Compound 3a, 3-hydroxypyrazine-2-carboxamide]
Solution: > 0.665 mM

---

Test system: DENV-2 viral replicon
Experimental Context: DENV replicon BHK cells
Tag: t if measured TTI, tissue culture therapeutic index (CC50/EC50) is not below 10, f if it is.

Completed entries (count: 4):
- NC(=O)c1nccnc1O [Compound 3a, 3-hydroxypyrazine-2-carboxamide]: t
- NC(=O)c1nc[nH]c1O [Compound 2a, 5-hydroxy-1H-imidazole-4-carboxamide]: f
- NC(=O)c1ncn([C@@H]2O[C@H](CO)[C@@H](O)[C@H]2O)c1O [Compound 2b, reference compound]: f
- COc1c(C)c2c(c(O)c1C/C=C(C)/C=C(\C)C(=O)O)C(=O)OC2 [Compound 6, reference compound]: f

Exercise: Confirm if TTI, tissue culture therapeutic index (CC50/EC50) reported for the compound NC(=O)c1nc[nH]n1 [Compound 1a, 1H-1,2,4-triazole-3-carboxamide] is 10 or above.
Solution: t
